# targetOfAssay: endopeptidase 24.11 (Rattus norvegicus, UniProt P07861)
# Sequence (P07861 1-750): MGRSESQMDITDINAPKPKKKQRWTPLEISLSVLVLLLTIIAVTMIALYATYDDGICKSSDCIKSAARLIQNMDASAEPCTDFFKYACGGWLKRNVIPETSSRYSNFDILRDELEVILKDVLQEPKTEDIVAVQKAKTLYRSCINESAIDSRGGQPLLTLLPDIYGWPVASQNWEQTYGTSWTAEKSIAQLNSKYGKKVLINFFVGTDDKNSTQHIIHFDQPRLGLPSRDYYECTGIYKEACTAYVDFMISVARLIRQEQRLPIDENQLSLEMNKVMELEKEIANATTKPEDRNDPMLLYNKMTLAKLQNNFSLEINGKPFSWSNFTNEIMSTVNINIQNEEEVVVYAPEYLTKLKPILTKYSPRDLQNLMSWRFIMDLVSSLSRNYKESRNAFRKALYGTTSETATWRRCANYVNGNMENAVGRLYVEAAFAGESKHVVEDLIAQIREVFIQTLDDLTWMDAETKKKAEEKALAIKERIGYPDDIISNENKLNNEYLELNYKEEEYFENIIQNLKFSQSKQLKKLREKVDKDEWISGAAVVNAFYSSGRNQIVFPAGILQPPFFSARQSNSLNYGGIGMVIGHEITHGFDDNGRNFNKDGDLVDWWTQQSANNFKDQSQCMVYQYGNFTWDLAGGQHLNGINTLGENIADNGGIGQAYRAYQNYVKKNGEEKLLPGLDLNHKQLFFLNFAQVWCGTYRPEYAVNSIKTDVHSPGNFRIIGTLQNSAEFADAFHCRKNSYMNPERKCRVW
parameterMeasured: pIC50
Notebook: values listed as pIC50 are -log10 of the concentration (mol/L).

CC(C)CN(CC(O)C(=O)O)C(=O)N[C@@H](Cc1ccccc1)C(=O)O (mixture of isomers)    8.27
CC(C)CN(CC(O)C(=O)O)C(=O)N[C@@H](Cc1ccc(-c2ccccc2)cc1)C(=O)O (mixture of isomers)    8.96
CC(C)CN(C[C@H](O)C(=O)NO)C(=O)N[C@@H](Cc1ccccc1)C(=O)O    9.49

Field: pIC50 (endopeptidase 24.11 (Rattus norvegicus, UniProt P07861)). Entry: CC(C)CN(CC(O)C(=O)O)C(=O)N[C@H](C(=O)O)c1ccccc1 (mixture of isomers)
7.19
